pIC50: −log10 of the molar value.
Target or system UniProtKB P23458: recorded pIC50 listed per item.
Sequence (P23458 whole entry, species assumed): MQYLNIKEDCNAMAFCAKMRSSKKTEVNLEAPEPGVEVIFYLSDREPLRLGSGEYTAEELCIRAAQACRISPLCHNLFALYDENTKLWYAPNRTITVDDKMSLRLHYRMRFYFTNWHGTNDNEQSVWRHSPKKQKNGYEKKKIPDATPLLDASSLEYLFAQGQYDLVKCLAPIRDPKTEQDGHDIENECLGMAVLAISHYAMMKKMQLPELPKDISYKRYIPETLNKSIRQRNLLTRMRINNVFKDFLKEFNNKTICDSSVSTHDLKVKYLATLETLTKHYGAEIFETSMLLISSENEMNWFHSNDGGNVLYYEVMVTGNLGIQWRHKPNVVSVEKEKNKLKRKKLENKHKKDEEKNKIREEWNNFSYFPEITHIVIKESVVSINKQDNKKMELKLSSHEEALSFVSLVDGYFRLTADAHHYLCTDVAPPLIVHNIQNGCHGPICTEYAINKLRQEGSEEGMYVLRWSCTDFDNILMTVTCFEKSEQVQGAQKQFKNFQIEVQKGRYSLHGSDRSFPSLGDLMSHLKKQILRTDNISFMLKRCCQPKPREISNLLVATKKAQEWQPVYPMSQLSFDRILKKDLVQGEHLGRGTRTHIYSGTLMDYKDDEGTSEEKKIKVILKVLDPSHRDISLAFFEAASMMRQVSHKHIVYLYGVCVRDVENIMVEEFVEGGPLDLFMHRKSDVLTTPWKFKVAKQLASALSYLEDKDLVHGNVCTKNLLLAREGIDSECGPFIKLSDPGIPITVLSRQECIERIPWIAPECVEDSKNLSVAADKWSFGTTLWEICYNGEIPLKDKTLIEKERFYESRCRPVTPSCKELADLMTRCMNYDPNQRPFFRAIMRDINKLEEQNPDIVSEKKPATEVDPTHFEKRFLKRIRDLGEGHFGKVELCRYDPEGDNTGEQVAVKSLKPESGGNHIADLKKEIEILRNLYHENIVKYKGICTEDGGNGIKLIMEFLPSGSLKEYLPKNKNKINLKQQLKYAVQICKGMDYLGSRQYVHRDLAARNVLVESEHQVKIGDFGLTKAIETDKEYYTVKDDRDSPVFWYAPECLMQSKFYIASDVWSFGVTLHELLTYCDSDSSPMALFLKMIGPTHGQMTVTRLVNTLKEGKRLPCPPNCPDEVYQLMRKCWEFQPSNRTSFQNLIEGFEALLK

compound="Cc1cc(Nc2ncc(C)c(N3CC(CC#N)(N4CCN5CCCC[C@H]5C4)C3)n2)sn1 [E80a]" result="> 8.00"
compound="Cc1cc(Nc2ncc(C)c(N3CC(CC#N)(N4CCN5C[C@H](F)C[C@@H]5C4)C3)n2)sn1 [E75a]" result="> 7.30"
compound="Cc1cc(Nc2ncc(C)c(N3CC(CC#N)(OC4CC5(CC5)C4)C3)n2)sn1 [E99a]" result="> 8.00"
compound=Cc1cc(Nc2nccc(N3CC(CC#N)(N4CCCCC4)C3)n2)sn1 result="> 6.70"
compound=Cc1cc(Nc2ncc(C)c(N3CC(CC#N)(N4CCC(CC(F)F)CC4)C3)n2)sn1 result="> 8.00"
compound="Cc1cc(Nc2ncc(C)c(N3CC(CC#N)(N4CCN5CCOC[C@@H]5C4)C3)n2)sn1 [E77a]" result="> 7.30"

Shifting focus to the compound that follows.
Field: pIC50 (UniProtKB P23458). Entry: Cc1cc(Nc2ncc(C)c(N3CC(CCF)(N4CCCCC4)C3)n2)sn1 [E116a]
> 7.30
